# IC50 annotations
testedTarget: recombinant human ACC1 (rhACC1) (Homo sapiens, UniProt Q13085, DEL44-44)
Construct: recombinant baculovirus containing full length human ACC1 cDNA
test: recombinant hACC1 Transcreener assay (direct inhibition of ACC1 activity)
assayConditions: Transcreener ADP detection FP assay, 50 μM ATP, 30 μM acetyl-CoA, 120 min at 25° C.

The following compounds have reported results that may help.
>  <compound>
Cc1nc2ccc(C(=O)N3CCC4(CC3)CC(=O)c3c(cnn3C3COC3)C4)cc2[nH]1

>  <IC50>
1.3 µM

$$$$
>  <compound>
CC(C)n1ncc2c1C(=O)CC1(CCN(C(=O)c3ccc(-n4ccnc4)cn3)CC1)C2 [Example 11A-63]

>  <IC50>
8.72 µM

$$$$

// next item, IC50 requested
[ask] Can you look up the measured IC50 of Cc1ccn2cc(C(=O)N3CCC4(CC3)CC(=O)c3c(cnn3C(C)(C)C)C4)nc2c1 [Example 11A-27] for me?
[reply] 0.584 µM

These entries and their values trace back to patent US9139587B2.
